Biological target: HIF-2α (Homo sapiens, UniProt Q99814)
Sequence (Q99814 whole entry): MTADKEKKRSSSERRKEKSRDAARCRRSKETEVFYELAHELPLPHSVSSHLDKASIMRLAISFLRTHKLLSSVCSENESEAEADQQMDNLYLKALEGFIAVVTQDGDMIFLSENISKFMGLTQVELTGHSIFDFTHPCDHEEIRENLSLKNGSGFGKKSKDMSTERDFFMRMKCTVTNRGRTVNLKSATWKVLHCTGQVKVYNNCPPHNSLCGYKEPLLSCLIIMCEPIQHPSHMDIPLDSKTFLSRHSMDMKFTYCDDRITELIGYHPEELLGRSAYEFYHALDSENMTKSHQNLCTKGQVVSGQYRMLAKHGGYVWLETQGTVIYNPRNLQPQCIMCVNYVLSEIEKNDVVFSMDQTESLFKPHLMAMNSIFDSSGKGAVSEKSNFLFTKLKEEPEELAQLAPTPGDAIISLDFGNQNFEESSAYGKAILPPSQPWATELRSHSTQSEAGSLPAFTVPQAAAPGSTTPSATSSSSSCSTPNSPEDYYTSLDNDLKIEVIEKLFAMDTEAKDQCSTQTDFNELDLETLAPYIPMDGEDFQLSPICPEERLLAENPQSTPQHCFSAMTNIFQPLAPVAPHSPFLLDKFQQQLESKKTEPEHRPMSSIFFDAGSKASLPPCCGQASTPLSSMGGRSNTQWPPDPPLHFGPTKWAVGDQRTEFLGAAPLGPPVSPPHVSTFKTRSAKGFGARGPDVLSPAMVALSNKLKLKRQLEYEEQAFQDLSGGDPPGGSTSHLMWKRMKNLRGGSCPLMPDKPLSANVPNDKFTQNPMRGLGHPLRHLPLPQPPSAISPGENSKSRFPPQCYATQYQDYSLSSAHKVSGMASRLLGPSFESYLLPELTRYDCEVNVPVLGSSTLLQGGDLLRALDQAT
Test: HIF-2α Luciferase Reporter Assay (serum), HRE-luciferase 786-0 cells in 100% human serum
Type: cell-based
Conditions: ratio of IC50 in 100% serum to IC50 in serum free conditions; approximate
measured_metric: Serum Shift (approximate)
Note: the reply should be a number with no unit written.

COC(C)CCn1nc(C(F)(F)F)c2c1CCC(F)(F)[C@H]2O (stereo partly shown): 2
O[C@H]1c2c(C(F)(F)F)nn([C@@H]3CCCC(F)(F)C3)c2[C@@H](F)[C@H]1F (single isomer, unassigned) [136/137 DIAST-2]: 7
O[C@H]1c2c(C(F)(F)F)nn([C@@H]3CC[C@@H](F)[C@@H](F)C3)c2[C@@H](F)C1(F)F: 8
O[C@H]1c2c(C(F)(F)F)nn(CCCOC(F)(F)F)c2[C@H](F)CC1(F)F (single isomer, unassigned) [129/130 DIAST-2]: 17

Provide Serum Shift (approximate), system HIF-2α (Homo sapiens, UniProt Q99814), entry O[C@H]1c2c(C(F)(F)F)nn(C3CC[C@H](F)[C@H](F)C3)c2CC1(F)F (single isomer, unassigned) [72/73 DIAST-2] 3

Output reported Serum Shift (approximate) of the molecule O[C@H]1c2c(C(F)(F)F)nn(CCc3ccsc3)c2CC1(F)F on HIF-2α (Homo sapiens, UniProt Q99814). 17

Please report the measured Serum Shift (approximate) for O[C@H]1c2c(C(F)(F)F)nn(CC3CCC(F)(F)CC3)c2CC1(F)F tested on HIF-2α (Homo sapiens, UniProt Q99814). 14

State, for HIF-2α (Homo sapiens, UniProt Q99814), measured Serum Shift (approximate) of the molecule listed here: CS(=O)(=O)CCn1nc(C(F)(F)F)c2c1CC(F)(F)[C@H]2O 2

State Serum Shift (approximate) on HIF-2α (Homo sapiens, UniProt Q99814). Entry: O=S1(=O)CCCC(n2nc(C(F)(F)F)c3c2CC(F)(F)[C@H]3O)C1 (stereo partly shown) 3
